Tested on: NCI-H226
Experiment: NCI tumour cell line growth inhibition, 48 h
Active and inactive are the calls of the source. No stated cut-off is given here; in the data, active = GI50 up to about 1.1 µM and inactive = higher.
Classes used: active, inactive

[
  {
    "Molecule": "CC(C)OP(=O)(OC(C)C)C(Nc1cccc(C(F)(F)F)c1)c1ccccc1 (stereo not given)",
    "Class Name": "inactive"
  },
  {
    "Molecule": "O=C1NC(N2CCOCC2)=N/C1=C\\c1ccccc1",
    "Class Name": "inactive"
  },
  {
    "Molecule": "CCc1nnc(-n2c(C)nc3cc(Cl)ccc3c2=O)s1",
    "Class Name": "inactive"
  },
  {
    "Molecule": "CC(=O)Oc1ccc(C)c2c1[C@H]1CC[C@]3(C)[C@@H](OC(C)=O)CC[C@H]3[C@@H]1CC2",
    "Class Name": "inactive"
  },
  {
    "Molecule": "Cc1n[nH]c(=S)n1/N=C/c1ccc(-c2ccc(Cl)cc2)o1",
    "Class Name": "inactive"
  },
  {
    "Molecule": "COc1ccc2c3c([nH]c2c1[N+](=O)[O-])C(C)N(C)CC3 (stereo not given)",
    "Class Name": "inactive"
  },
  {
    "Molecule": "CN1c2ccccc2C2c3c(O)ccc(O)c3C=C([N+](=O)[O-])C21 (stereo not given)",
    "Class Name": "inactive"
  },
  {
    "Molecule": "COc1cc2c(cc1OC)[Se]c1cc(OC)c(OC)cc1[Se]2",
    "Class Name": "inactive"
  },
  {
    "Molecule": "COc1ccc(C2=NNC(c3cc4cc(Br)ccc4nc3Cl)C2)cc1 (stereo not given)",
    "Class Name": "active"
  },
  {
    "Molecule": "O=P1(Oc2ccc(Cl)cc2Cl)Oc2ccc3ccccc3c2-c2c(ccc3ccccc23)O1",
    "Class Name": "inactive"
  },
  {
    "Molecule": "OCCOc1ccccc2cccc1-2",
    "Class Name": "inactive"
  },
  {
    "Molecule": "CC(=O)OC1COC(Nc2nc(N)n(C)c(=O)c2N=O)C(OC(C)=O)C1OC(C)=O (stereo not given)",
    "Class Name": "inactive"
  },
  {
    "Molecule": "O=C1CC(c2cccc(Br)c2)n2cccc21 (stereo not given)",
    "Class Name": "inactive"
  },
  {
    "Molecule": "Cn1cnc([N+](=O)[O-])c1Sc1nccc(O)n1",
    "Class Name": "inactive"
  },
  {
    "Molecule": "O=C(CSc1nc(O)nc2[nH]cnc12)Nc1ccccc1",
    "Class Name": "inactive"
  },
  {
    "Molecule": "CCOC(=O)CCC(C(=O)OCC)n1nnc2ccc(Nc3c(C)[n+]([O-])c4cc(F)c(OCC)cc4[n+]3[O-])cc21 (stereo not given)",
    "Class Name": "inactive"
  },
  {
    "Molecule": "O=C1/C(=N/CCc2cc(Br)c(O)c(Br)c2)C=C(O)c2cccnc21",
    "Class Name": "inactive"
  },
  {
    "Molecule": "O=Cc1ccc(-c2ccc(S(=O)(=O)O)cc2)o1",
    "Class Name": "inactive"
  },
  {
    "Molecule": "COc1cc(C2c3cc4c(cc3OC(NNc3ccccc3)C2C)OCO4)cc(OC)c1O (stereo not given)",
    "Class Name": "inactive"
  },
  {
    "Molecule": "O=S1(=O)N=C(SCc2ccccc2)N(c2ccccc2)c2ccncc21",
    "Class Name": "inactive"
  },
  {
    "Molecule": "Cc1ccc(C)c(C(=N)c2ccccc2Cc2ccccc2)c1",
    "Class Name": "inactive"
  },
  {
    "Molecule": "CC(=O)OC1C(C)OC(OC(=O)C2CCC3C(C2)OC2(CC(OC(=O)/C=C/c4ccccc4)C(C)CO2)C32CO2)C(OC2OC(C)C(O)C(OC(C)=O)C2O)C1O (stereo not given)",
    "Class Name": "active"
  },
  {
    "Molecule": "COC(=O)C1=C(C)N2[C@H](C(=O)O)CO[C@@]2(C)[C@H](C(=O)OC)[C@H]1c1cccc([N+](=O)[O-])c1",
    "Class Name": "inactive"
  },
  {
    "Molecule": "Cc1oc2nc(N(C)C)nc(NN)c2c1C",
    "Class Name": "inactive"
  },
  {
    "Molecule": "NP(=O)(OCC1=CC(=O)c2ccccc2C1=O)N(CCBr)CCBr (stereo not given)",
    "Class Name": "inactive"
  }
]
